test system: Prevotella intermedia JCM 6322; experiment: MIC by agar plate dilution method, Pt-1; format: cell-based; conditions: Prevotella intermedia, JCM6322; agar medium, 37° C., 72 hours, anaerobic conditions; read-out: MIC Pt-1 (paradentosis-related bacteria)
# MIC listing for each entry below
Property: MIC

Given Smiles: C=CCCCCCCCCO
Property: MIC
Obs Value: 62.5 µg/mL
--
Given Smiles: CCCCCCCCCCCC=O
Property: MIC
Obs Value: 62.5 µg/mL
--
Given Smiles: O=C1CCCC=CCCCCCCCCCC1
Property: MIC
Obs Value: 31.3 µg/mL
--
Given Smiles: O=CCc1ccccc1
Property: MIC
Obs Value: 15.6 µg/mL

Numbers sourced from patent US20080125496A1.
